# experiment description: acute toxicity after peroral administration to mice
# Assay type: in vivo
# assay context: in vivo, po, mouse, observation 14 days
LD50 at 336 h values for the compounds below.

Please review the following examples before continuing.
INSERT INTO measurements (compound, reported_property, readout_value) VALUES
  ('COC1CCN(CC(=O)N2c3ccccc3C(=O)Nc3cccnc32)CC1 [B]', 'LD50 at 336 h', '> 1000 mg/kg'),
  ('CCN1CCCC1CNCC(=O)N1c2ccccc2C(=O)N(C)c2cccnc21 (centres unmarked) [A]', 'LD50 at 336 h', '~1500 mg/kg'),
  ('CC1CCCCN1CCC(=O)N1c2ccccc2C(=O)Nc2cccnc21 (centres unmarked) [C]', 'LD50 at 336 h', '> 1000 mg/kg'),
  ('O=C1Nc2cccnc2N(C(=O)CCN2CCCCC2)c2ccccc21 [D]', 'LD50 at 336 h', '~2000 mg/kg');

Read the next record carefully.
Please give the measured LD50 at 336 h for this compound: O=C1Nc2cccnc2N(C(=O)CCCN2CCCC2)c2ccccc21 [E]
> 1500 mg/kg

---

# System: stress ulcers
# experiment description: inhibiting effect on the formation of stress ulcers in rats
# Format: in vivo
# assay context: 50 mg/kg
reported property: Ulcer-inhibition in % (rat) after peroral administr. of 50 mg/kg (%)
Kindly answer with a numeric value in %, unit omitted.

Please review the following examples before continuing.
INSERT INTO measurements (molecule, target, readout_value) VALUES
  ('O=C1Nc2cccnc2N(C(=O)CCCN2CCCC2)c2ccccc21', 'stress ulcers', 79),
  ('CC1CCCCN1CCC(=O)N1c2ccccc2C(=O)Nc2cccnc21 (centres unmarked)', 'stress ulcers', 95),
  ('O=C1Nc2cccnc2N(C(=O)CCN2CCCCC2)c2ccccc21', 'stress ulcers', 84),
  ('COC1CCN(CC(=O)N2c3ccccc3C(=O)Nc3cccnc32)CC1', 'stress ulcers', 89);

Please tell me: Ulcer-inhibition in % (rat) after peroral administr. of 50 mg/kg of CCN1CCCC1CNCC(=O)N1c2ccccc2C(=O)N(C)c2cccnc21 (centres unmarked) , system stress ulcers?
95

---

# Tested on: guinea pig colon
# experiment description: spasmolytic effect in vitro on the guinea pig colon (acetylcholine-induced spasms; comparison atropinesulfate)
# assay context: relative to atropine = 1
reported property: Spasmolysis (acetylcholine) with regard to Atropin = 1

Observe how each entry below is paired with its result.
INSERT INTO results (molecule, readout_value) VALUES
  ('COC1CCN(CC(=O)N2c3ccccc3C(=O)Nc3cccnc32)CC1 [B]', '1/125'),
  ('CCN1CCCC1CNCC(=O)N1c2ccccc2C(=O)N(C)c2cccnc21 (centres unmarked) [A]', '1/250'),
  ('O=C1Nc2cccnc2N(C(=O)CCCN2CCCC2)c2ccccc21 [E]', '1/190'),
  ('O=C1Nc2cccnc2N(C(=O)CCN2CCCCC2)c2ccccc21 [D]', '1/125');

Now let's try a different one.
// returns reported Spasmolysis (acetylcholine) with regard to Atropin = 1 for input CC1CCCCN1CCC(=O)N1c2ccccc2C(=O)Nc2cccnc21 (centres unmarked) [C]
1/50
